biological target: the molecule itself; test: SEC-MALS; Skp variants alone, elution concentration ≃80 μM, 25°C, 20 mM MES pH 6.5, 150 mM NaCl; monomer to trimer
readout_type: Trimer (%) at c ≃ 80 μM

- protein: "Skp(A108L) (natural protein, E. coli, UniProt P0AEU7 21-161, looked up, Monomer-trimer equilibrium strongly shifted toward the monomer; also called Skp(108L); source: E. coli BL21-(λ DE3)-Lemo, purified (Ni-NTA, SEC); not shown: His6, N-terminal, kept) ADKIAIVNMGSLFQQVAQKTGVSNTLENEFKGRASELQRMETDLQAKMKKLQSMKAGSDRTKLEKDVMAQRQTFAQKAQAFEQDRARRSNEERGKLVTRIQTAVKSVLNSQDIDLVVDANAVAYNSSDVKDITADVLKQVK"
  readout_type: "Trimer (%) at c ≃ 80 μM"
  unit_label: "%"
  numeric_result: 47
- protein: "Skp(A103R) (natural protein, E. coli, UniProt P0AEU7 21-161, looked up, Monomer-trimer equilibrium shifted toward the monomer; source: E. coli BL21-(λ DE3)-Lemo, purified (Ni-NTA, SEC); not shown: His6, N-terminal, kept) ADKIAIVNMGSLFQQVAQKTGVSNTLENEFKGRASELQRMETDLQAKMKKLQSMKAGSDRTKLEKDVMAQRQTFAQKAQAFEQDRARRSNEERGKLVTRIQTRVKSVANSQDIDLVVDANAVAYNSSDVKDITADVLKQVK"
  readout_type: "Trimer (%) at c ≃ 80 μM"
  unit_label: "%"
  numeric_result: 86
- protein: "Skp(WT), seventeen kilodalton protein, periplasmic chaperone of Escherichia coli (natural protein, E. coli, UniProt P0AEU7 21-161, looked up, Stands in a monomer-trimer equilibrium; the active form is the homotrimer; The thrombin-cleavable His6-tag of pET28b was not cleaved; Isotope-labelled for NMR in some samples; source: E. coli BL21-(λ DE3)-Lemo, purified (Ni-NTA, SEC); not shown: His6, N-terminal, kept) ADKIAIVNMGSLFQQVAQKTGVSNTLENEFKGRASELQRMETDLQAKMKKLQSMKAGSDRTKLEKDVMAQRQTFAQKAQAFEQDRARRSNEERGKLVTRIQTAVKSVANSQDIDLVVDANAVAYNSSDVKDITADVLKQVK"
  readout_type: "Trimer (%) at c ≃ 80 μM"
  unit_label: "%"
  numeric_result: 97
- protein: "Skp(A103L) (natural protein, E. coli, UniProt P0AEU7 21-161, looked up, Monomer-trimer equilibrium essentially as the wild type; source: E. coli BL21-(λ DE3)-Lemo, purified (Ni-NTA, SEC); not shown: His6, N-terminal, kept) ADKIAIVNMGSLFQQVAQKTGVSNTLENEFKGRASELQRMETDLQAKMKKLQSMKAGSDRTKLEKDVMAQRQTFAQKAQAFEQDRARRSNEERGKLVTRIQTLVKSVANSQDIDLVVDANAVAYNSSDVKDITADVLKQVK"
  readout_type: "Trimer (%) at c ≃ 80 μM"
  unit_label: "%"
  numeric_result: 94

Entry source: paper PMC7577714
